So I've got a bunch of compounds here, and I need their melting point values.

# melting point (compound: CCc1nc2c(N)nc3ccccc3c2n1CCOCCS(C)(=O)=O [Example 5] ) is 160 to 163 °C

# melting point (compound: CCOCc1nc2c(N)nc3ccccc3c2n1CC(C)(C)OCCS(=O)(=O)c1ccccc1 [Example 8] ) is 187 to 189 °C

# melting point (compound: CCCc1nc2c(N)nc3c(c2n1CCOCCS(C)(=O)=O)CCCC3 [Example 11] ) is 153 to 155 °C

# melting point (compound: CCOCc1nc2c(N)nc3cccnc3c2n1CC(C)(C)OCCS(C)(=O)=O [Example 40] ) is 189 to 191 °C

# melting point (compound: CCCCc1nc2c(N)nc3ccccc3c2n1CC(C)(C)OCCS(C)(=O)=O [Example 32] ) is 196 to 198 °C

# melting point (compound: CCCc1nc2c(N)nc3c(c2n1CC(C)(C)OCCS(C)(=O)=O)CCCC3 [Example 35] ) is 188 to 190 °C

# melting point (compound: CCOCc1nc2c(N)nc3ccccc3c2n1CC1(OCCS(C)(=O)=O)CCC1 [Example 26] ) is 221 to 223 °C

# melting point (compound: CCCc1nc2c(N)nc3ccccc3c2n1CCOCCC[S+](C)[O-] (stereo not drawn) [Example 18] ) is 148 to 151 °C

# melting point (compound: CCCc1nc2c(N)nc3ccccc3c2n1CCOCCCS(=O)(=O)C(C)C [Example 14] ) is 176 to 177 °C

# melting point (compound: CCOCc1nc2c(N)nc3ccccc3c2n1CC(C)(C)OCCS(C)(=O)=O [Example 9] ) is 183 to 185 °C

# melting point (compound: CC(C)(Cn1cnc2c(N)nc3c(c21)CCCC3)OCCS(C)(=O)=O [Example 31] ) is 219 to 223 °C

# melting point (compound: COCc1nc2c(N)nc3c(c2n1CC(C)(C)OCCS(C)(=O)=O)CCCC3 [Example 39] ) is 195 to 197 °C

# melting point (compound: CCCc1nc2c(N)nc3ccccc3c2n1CCOCCCS(=O)(=O)c1ccccc1 [Example 13] ) is 160 to 161 °C

# melting point (compound: CCOCc1nc2c(N)nc3ccccc3c2n1CC1(OCCS(C)(=O)=O)CCCCC1 [Example 24] ) is 159 to 161 °C

# melting point (compound: CCOCc1nc2c(N)nc3ccccc3c2n1CCOCCS(C)(=O)=O [Example 6] ) is 158 to 160 °C

# melting point (compound: CS(=O)(=O)CCOCCn1cnc2c(N)nc3ccccc3c21 [Example 3] ) is 145 to 148 °C

# melting point (compound: Cc1nc2c(N)nc3c(c2n1CC(C)(C)OCCS(C)(=O)=O)CCCC3 [Example 30] ) is 226 to 229 °C

# melting point (compound: CCCCc1nc2c(N)nc3c(c2n1CC(C)(C)OCCS(C)(=O)=O)CCCC3 [Example 33] ) is 146 to 148 °C

====

So I've got a bunch of compounds here, and I need their melting point values.

# melting point (compound: CCCc1nc2c(N)nc3ccccc3c2n1CCOCCCS(C)(=O)=O ) is 149 to 151 °C

# melting point (compound: CCCc1nc2c(N)nc3ccccc3c2n1CCOCCS(C)(=O)=O ) is 150 to 152 °C

# melting point (compound: CCc1nc2c(N)nc3ccccc3c2n1CC(C)(C)OCCS(C)(=O)=O ) is 206 to 209 °C

# melting point (compound: COCc1nc2c(N)nc3ccccc3c2n1CC(C)(C)OCCS(C)(=O)=O ) is 186 to 189 °C

# melting point (compound: CCOCc1nc2c(N)nc3ccccc3c2n1CC1(OCCS(C)(=O)=O)CC1 ) is 169 to 171 °C

# melting point (compound: CCCc1nc2c(N)nc3ccccc3c2n1CC(C)(C)OCCS(C)(=O)=O ) is 203 to 206 °C

# melting point (compound: CCc1nc2c(N)nc3c(c2n1CC(C)(C)OCCS(C)(=O)=O)CCCC3 ) is 225 to 227 °C

# melting point (compound: COCCc1nc2c(N)nc3ccccc3c2n1CCOCCS(C)(=O)=O ) is 142 to 144 °C

====

So I've got a bunch of molecules here, and I need their melting point values.

# melting point (molecule: CCCCc1nc2c(N)nc3ccccc3c2n1CCOCCS(C)(=O)=O ) is 168 to 170 °C

# melting point (molecule: CC(C)(Cn1cnc2c(N)nc3ccccc3c21)OCCS(C)(=O)=O ) is 261 to 264 °C

# melting point (molecule: CCOCc1nc2c(N)nc3ccccc3c2n1CC1(OCCS(C)(=O)=O)CCCC1 ) is 163 to 165 °C

# melting point (molecule: CCOCc1nc2c(N)nc3c(c2n1CC1(OCCS(C)(=O)=O)CCC1)CCCC3 ) is 186 to 188 °C

# melting point (molecule: Cc1nc2c(N)nc3ccccc3c2n1CC(C)(C)OCCS(C)(=O)=O ) is 253 to 255 °C

====

parameter: melting point

# melting point (molecule: CCCc1nc2c(N)nc3ccccc3c2n1CCOCCCS(=O)(=O)c1ccccc1C ) is 159 to 160 °C

# melting point (molecule: CCc1nc2c(N)nc3c(c2n1CCOCCS(C)(=O)=O)CCCC3 ) is 146 to 148 °C

# melting point (molecule: CCOCc1nc2c(N)nc3c(c2n1CC(C)(C)OCCS(C)(=O)=O)CCCC3 ) is 150 to 153 °C
